Molecular target: T1, human Nectin-4 extracellular antigen hNectin-4-His (human, UniProt Q96NY8 32-349)
T1 construct: C-terminal 8xHis tag included
T1 sequence: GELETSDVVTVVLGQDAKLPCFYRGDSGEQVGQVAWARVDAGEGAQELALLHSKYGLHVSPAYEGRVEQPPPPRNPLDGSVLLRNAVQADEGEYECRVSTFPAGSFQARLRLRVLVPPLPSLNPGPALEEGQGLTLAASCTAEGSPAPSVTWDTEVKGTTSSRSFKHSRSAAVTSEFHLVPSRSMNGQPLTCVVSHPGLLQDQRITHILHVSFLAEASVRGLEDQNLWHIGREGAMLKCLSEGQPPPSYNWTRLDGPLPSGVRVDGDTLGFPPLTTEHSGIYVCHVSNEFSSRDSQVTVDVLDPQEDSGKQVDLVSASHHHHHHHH
Experiment: ELISA, phage scFv supernatant 1:50
Answer each item with its documented OD value.
I only need the number, in OD, no unit after it.

Report OD value, nothing else, for this binder: 10F4-1E10 scFv (scFv, V domains shown, phage clone supernatant) VH: EVQLVESGGGLVQPGGSLRLSCAASGDTFDTYAMSWVRQAPGKGLEWVSGISQWGAYASYADSVKGRFTISRDNSKNTLYLQMNSLRAEDTAVYYCAREYSDVVDYVSVRTPLDYWGQGTLVTVSS VL: DIQMTQSPSSLSASVGDRVTITCRASQGISSYLAWYQQKPGKAPKLLIYAASSLQSGVPSRFSGSGSGTDFTLTISSLQPEDFATYYCQQHYTTPPTFGQGTKVEIKR
1.29

Report OD value, nothing else, for this binder: 1G8-2G9 scFv (scFv, V domains shown, phage clone supernatant) VH: EVQLVESGGGLVQPGGSLRLSCAASGYIFTNYAMSWVRQAPGKGLEWVSRISQSGGTNDYADSVKGRFTISRDNSKNTLYLQMNSLRAEDTAVYYCARQTEDRSYGYDLDYWGQGTLVTVSS VL: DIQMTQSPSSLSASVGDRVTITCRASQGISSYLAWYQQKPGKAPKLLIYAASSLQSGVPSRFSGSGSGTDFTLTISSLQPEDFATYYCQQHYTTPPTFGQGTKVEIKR
1.54
